measured-attribute: melting point

Solved entries:
>>> value_observed("c1cnc(Nc2csc(-c3cn[nH]c3)n2)nc1 [Compound 1-7]")
"217 °C (dec.)"
>>> value_observed("COc1ccnc(Nc2csc(-c3cn[nH]c3)n2)n1 [Compound 1-5]")
"250 to 252 °C"
>>> value_observed("Cc1ccnc(Nc2csc(-c3cn[nH]c3)n2)n1 [Compound 1-4]")
"230 to 232 °C"
>>> value_observed("c1ccc(Nc2csc(-c3c[nH]nc3C3CC3)n2)nc1 [Compound 1-9]")
"141.3 °C"
>>> value_observed("Fc1cccc(Nc2csc(-c3cn[nH]c3)n2)n1 [Compound 1-3]")
"238 to 240 °C"
>>> value_observed("FC(F)(F)c1n[nH]cc1-c1nc(Nc2ccccn2)cs1 [Compound 1-8]")
"204 to 206 °C"

Now for a further compound.
query: Given c1cnc(Nc2csc(-c3c[nH]nc3C3CC3)n2)nc1 [Compound 1-10] , respond with its melting point.
result: 241 °C
